The origin of these recorded values is paper PMC4503722.

test system: SW480; assay: cells; type: cell-based; settings: assay number 24
Recorded measurements of Basal_Viability ATP SW480 IC50/EC50, one per entry

| molecule | unit.tag | comparator | Basal_Viability ATP SW480 IC50/EC50 |
| --- | --- | --- | --- |
| COc1cc(NCc2ccc3nc(N)nc(N)c3c2C)cc(OC)c1OC | µM | = | 0.0591 |
| CC(C)NCC(O)COc1ccc(CCOCC2CC2)cc1 (stereo not drawn) | µM | > | 20 |
| COc1ccc(CN2CCN(C(c3ccc(F)cc3)c3ccc(F)cc3)CC2)c(OC)c1OC.Cl.Cl | µM | = | 3.3247 |
| CCOC(=O)Oc1ccc(CCNC(=O)[C@H](CCSC)NC(C)=O)cc1OC(=O)OCC | µM | > | 20 |
| CC(=O)Oc1ccc(C2(c3ccc(OC(C)=O)cc3)Oc3ccccc3NC2=O)cc1 | µM | = | 9.1881 |
| Cc1nc2ccc(CN(C)c3ccc(C(=O)N[C@@H](CCC(=O)O)C(=O)O)s3)cc2c(=O)[nH]1 | µM | = | 0.001 |

----------
tested on: Colo320; experiment: cells; assay type: cell-based; conditions: basal; read-out: Basal_Viability ATP Colo 320
pIC50: −log10 of the molar value.
observed.property: pIC50

| compound | observed.property | readout.number |
| --- | --- | --- |
| O=[N+]([O-])c1ccc(Oc2ccc(N=C=S)cc2)cc1 | pIC50 | 5.83 |
| Cc1ccc([N+](=O)[O-])[c]2c1[O][Hg]2 [nitromersol, reference compound] | pIC50 | 6.03 |

----------
tested on: SW480; test: cells; format: cell-based; conditions: Homo sapiens; basal; SW480; read-out: Basal_Viability ATP SW480
pIC50: −log10 of the molar value.

| given.smiles | pIC50 |
| --- | --- |
| N[C@@H](Cc1ccc(N(CCCl)CCCl)cc1)C(=O)O | < 4.70 |

----------
Quick record of VEGF_ADSC\ECFC Angio Hoechst NucArea IC50/EC50 values for ECFC/ADSC co-culture cell nuclei number.
observed.property: VEGF_ADSC\ECFC Angio Hoechst NucArea IC50/EC50

| molecule | target.desc | result |
| --- | --- | --- |
| CCN(CC)C(=O)c1cccnc1 | ECFC/ADSC co-culture cell nuclei number | > 10 µM |
| CCCSS/C(CCO)=C(\C)N(C=O)Cc1cnc(C)nc1N | ECFC/ADSC co-culture cell nuclei number | > 10 µM |
| O=C(CBr)Nc1ccc(Cl)cc1C(=O)c1ccccc1F | ECFC/ADSC co-culture cell nuclei number | > 10 µM |
| CCC1Nc2cc(Cl)c(S(N)(=O)=O)cc2S(=O)(=O)N1 (stereo not drawn) | ECFC/ADSC co-culture cell nuclei number | > 10 µM |
| CC(C)C[C@H](NC(=O)[C@H](CCc1ccccc1)NC(=O)CN1CCOCC1)C(=O)N[C@@H](Cc1ccccc1)C(=O)N[C@@H](CC(C)C)C(=O)[C@@]1(C)CO1 | ECFC/ADSC co-culture cell nuclei number | 0.2852 µM |
| Cc1onc(-c2c(Cl)cccc2Cl)c1C(=O)Cl | ECFC/ADSC co-culture cell nuclei number | > 10 µM |
| CS(=O)(=O)CCNCc1ccc(-c2ccc3ncnc(Nc4ccc(OCc5cccc(F)c5)c(Cl)c4)c3c2)o1 | ECFC/ADSC co-culture cell nuclei number | > 10 µM |
| CN1CC[C@H](c2c(O)cc(O)c3c(=O)cc(-c4ccccc4Cl)oc23)[C@H](O)C1.Cl | ECFC/ADSC co-culture cell nuclei number | 0.3284 µM |
| O=c1oc2c(O)c(O)cc3c(=O)oc4c(O)c(O)cc1c4c23 | ECFC/ADSC co-culture cell nuclei number | > 10 µM |
| Oc1ccc2[nH]cc(CCCCN3CC=C(c4ccccc4)CC3)c2c1 | ECFC/ADSC co-culture cell nuclei number | > 10 µM |
| C=CC(C)(O)CCC=C(C)CCC=C(C)C (stereo not drawn) | ECFC/ADSC co-culture cell nuclei number | > 10 µM |
| CC(=O)Oc1ccccc1C(=O)Nc1ncc([N+](=O)[O-])s1 | ECFC/ADSC co-culture cell nuclei number | > 10 µM |
| CC(=O)c1ccc(OCC(=O)N2CCCCC2)cc1 | ECFC/ADSC co-culture cell nuclei number | > 10 µM |
| COc1cccc2c1C(=O)c1c(O)c3c(c(O)c1C2=O)C[C@@](O)(C(=O)CO)C[C@@H]3O[C@H]1C[C@H](N)[C@H](O[C@@H]2CCCCO2)[C@H](C)O1 | ECFC/ADSC co-culture cell nuclei number | 0.9949 µM |
| Cc1nc2ccccc2n1Cc1ccc(Cl)cc1 | ECFC/ADSC co-culture cell nuclei number | > 10 µM |
| COC(=O)N[C@H](C(=O)N[C@@H](Cc1ccccc1)[C@@H](O)CN(Cc1ccc(-c2ccccn2)cc1)NC(=O)[C@@H](NC(=O)OC)C(C)(C)C)C(C)(C)C | ECFC/ADSC co-culture cell nuclei number | > 10 µM |
| O=C(Nc1ccc(Oc2ccc(Cl)cc2)c(Cl)c1)c1cc(I)cc(I)c1O | ECFC/ADSC co-culture cell nuclei number | 6.571 µM |
| CCN1CCC[C@H]1CNC(=O)c1c(OC)ccc(Br)c1OC | ECFC/ADSC co-culture cell nuclei number | > 10 µM |

----------
system: HCT116 cells treated with a GSK3β inhibitor; experiment: cells; type: cell-based; details: Homo sapiens, HCT-116, read-out: GSK3b inh pretreated_Viability ATP HCT116

| compound | target.desc | IC50 (µM) |
| --- | --- | --- |
| O=C(Nc1ccc([N+](=O)[O-])cc1Cl)c1cc(Cl)ccc1O [Niclosamide] | HCT116 cells treated with a GSK3β inhibitor | 0.00295 |
| CCCCCCCCCCCCCCCCNc1ccc(C(=O)O)cc1 [cetaben sodium, sodium p-(hexadecylamino) benzoate, reference compound] | HCT116 cells treated with a GSK3β inhibitor | 7.41 |
| CC[C@H](C)C(=O)O[C@H]1C[C@@H](C)C=C2C=C[C@H](C)[C@H](CC[C@@H]3C[C@@H](O)CC(=O)O3)[C@H]21 [lovastatin, reference compound] | HCT116 cells treated with a GSK3β inhibitor | 7.36 |

----------
tested on: SNU-C1; assay: cells; type: cell-based; conditions: Homo sapiens, SNU-C1, read-out: Basal_Viability ATP SNU-C1

| compound | IC50 |
| --- | --- |
| COc1ccc(-c2ccc3cc(C(=O)O)ccc3c2)cc1C12CC3CC(CC(C3)C1)C2 | 1.78 µM |
| O=C(NOCC1CC1)c1ccc(F)c(F)c1Nc1ccc(I)cc1Cl [PD-184352, reference compound] | 0.0171 µM |
| CC(C)=CCNc1ncnc2c1ncn2[C@@H]1O[C@H](CO)[C@@H](O)[C@H]1O | 9.01 µM |
| COc1ccc2cc1Oc1ccc(cc1)C[C@H]1c3c(cc4c(c3Oc3cc5c(cc3OC)CCN(C)[C@@H]5C2)OCO4)CCN1C | 7.48 µM |
| Sc1ncnc2nc[nH]c12 | > 20 µM |
| Cn1cnc([N+](=O)[O-])c1Sc1ncnc2nc[nH]c12 | > 20 µM |

----------
tested on: DLD-1; experiment: cells; type: cell-based; conditions: basal
observed.property: IC50/EC50, Basal_Viability ATP DLD-1 (assay number 23) (µM)

| molecule | unit.tag | comparator | readout.number |
| --- | --- | --- | --- |
| COC(=O)Nc1nc2ccc([S+]([O-])c3ccccc3)cc2[nH]1 (centres unmarked) | µM | > | 20 |
| NC(=O)n1c(O)c(C(=O)c2cccs2)c2cc(Cl)ccc21 | µM | = | 6.9467 |
| Cc1cc(-c2ccc(N=Nc3c(S(=O)(=O)O)cc4cc(S(=O)(=O)O)cc(N)c4c3O)c(C)c2)ccc1N=Nc1c(S(=O)(=O)O)cc2cc(S(=O)(=O)O)cc(N)c2c1O | µM | > | 20 |
| NC(N)=NN=C(/C=C/c1ccc([N+](=O)[O-])o1)/C=C/c1ccc([N+](=O)[O-])o1 | µM | > | 20 |
| O=C(Nc1ccc(Br)cc1)c1cc(Br)cc(Br)c1O | µM | = | 0.001 |

----------
system: HT-29; test: cells; format: cell-based; details: assay number 28; basal
Recorded measurements of Basal_Viability ATP HT-29 IC50/EC50, one per entry

| molecule | target.desc | unit.tag | comparator | Basal_Viability ATP HT-29 IC50/EC50 |
| --- | --- | --- | --- | --- |
| CN(CCOc1ccc(CC2SC(=O)NC2=O)cc1)c1ccccn1 (centres unmarked) [NCGC00095124-08] | HT-29 | µM | > | 20 |
| CCOC(=O)[C@H](CCc1ccccc1)N[C@@H](C)C(=O)N1C(=O)N(C)C[C@H]1C(=O)O.Cl [NCGC00181342-02] | HT-29 | µM | > | 20 |
| Cc1cc2nc3c(=O)[nH]c(=O)nc-3n(C[C@H](O)[C@H](O)[C@H](O)COP(=O)([O-])OP(=O)([O-])OC[C@H]3O[C@@H](n4cnc5c(N)ncnc54)[C@H](O)[C@H]3O)c2cc1C.O.[Na+].[Na+] [NCGC00344578-01] | HT-29 | µM | > | 20 |
| CSc1ccc2c(c1)N(CCC1CCCCN1C)c1ccccc1S2 (centres unmarked) [NCGC00016059-13] | HT-29 | µM | = | 5.8969 |
| Cc1cc(C2CCCCC2)n(O)c(=O)c1.NCCO [NCGC00017112-10] | HT-29 | µM | = | 7.035 |
